Values from patent US10144723B2

Target: MRK (Homo sapiens)
Sequence (Q9NYL2 whole entry): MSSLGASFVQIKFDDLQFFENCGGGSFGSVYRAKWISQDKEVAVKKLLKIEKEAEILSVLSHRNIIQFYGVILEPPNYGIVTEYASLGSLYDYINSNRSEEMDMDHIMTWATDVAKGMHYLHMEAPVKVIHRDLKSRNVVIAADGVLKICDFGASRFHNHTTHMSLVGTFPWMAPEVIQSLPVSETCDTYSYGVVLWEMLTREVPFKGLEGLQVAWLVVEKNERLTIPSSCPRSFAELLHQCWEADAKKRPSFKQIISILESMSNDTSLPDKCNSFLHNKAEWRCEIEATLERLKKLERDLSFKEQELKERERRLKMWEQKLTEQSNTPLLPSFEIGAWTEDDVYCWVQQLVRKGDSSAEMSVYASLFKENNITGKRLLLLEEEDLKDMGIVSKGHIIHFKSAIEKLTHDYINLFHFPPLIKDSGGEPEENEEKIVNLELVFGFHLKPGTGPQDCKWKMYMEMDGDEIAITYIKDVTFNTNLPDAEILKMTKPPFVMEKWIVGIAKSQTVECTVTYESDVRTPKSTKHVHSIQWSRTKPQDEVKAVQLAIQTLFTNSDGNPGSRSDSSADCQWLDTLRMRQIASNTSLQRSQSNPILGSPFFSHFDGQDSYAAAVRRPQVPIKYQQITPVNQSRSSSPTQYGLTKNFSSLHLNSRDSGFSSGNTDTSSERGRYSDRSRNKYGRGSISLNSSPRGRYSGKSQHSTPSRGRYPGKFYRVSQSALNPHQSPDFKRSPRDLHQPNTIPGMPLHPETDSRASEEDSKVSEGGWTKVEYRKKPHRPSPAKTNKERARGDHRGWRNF
Assay: Inhibition of endogenous MRK activity induced by radiation in medulloblastoma cells
Value type: IC50

                                   molecule   target_under_test  recorded_measurement
0  C=CC(=O)N1CCCC(c2ccnc(Nc3cc(C(=O)Nc4cc(-n5cnc(C)c5)cc(C(F)(F)F)c4)ccc3C)n2)C1 (stereo not shown)  MRK (Homo sapiens)               ~125 nM
